- System: SK-MEL-2 melanoma
- assay-summary: NCI-60 one-dose screen, 48 h
- recorded-conditions: 10 µM unless noted
Compounds without any hit were thinned out: in the full panel of roughly 83,000, 20% have a hit. The source made the active and inactive calls. The calls were made as follows: active = growth percent below 10; inactive = the rest.
Pick one and only one: t (active), f (inactive)

Field: example entries. Status: answers known.
| compound | target-or-test-system | class |
| --- | --- | --- |
| COc1ccc(C(=S)N2CCN(c3cccc(C)c3)CC2)cc1OC | SK-MEL-2 melanoma | f |
| CN1C(=O)N(C)C2Nn3c(s/c(=C\c4ccccc4)c3=O)=NC21 (stereo unspecified) | SK-MEL-2 melanoma | f |
| CNc1ccc(Nc2cccc(C)c2)c2c1C(=O)c1ccccc1C2=O | SK-MEL-2 melanoma | f |
| COc1cc(/C=C2\C(=O)Nc3ccc(Br)cc32)cc(OC)c1OC | SK-MEL-2 melanoma | f |
| O=C1CCC(C(=O)NCCNCCNC(=O)C2CCC(=O)N2)N1 (stereo unspecified) | SK-MEL-2 melanoma | f |

Each compound tested received a call. Report the one for O=C1/C(=C/c2ccc(F)cc2)Sc2c(Br)cccc21 .
f

Could you do the same for CC1(C)C2CC1C1(/C=N\Nc3ccccc3)C(C2)C(C#N)(C#N)C1(C#N)C#N (stereo unspecified) , please?
f

Could you do the same for O=[N+]([O-])c1ccc(Oc2nc(Nc3ccc(O[C@H]4CO[C@H]5[C@@H]4OC[C@@H]5O)c(Cl)c3)ncc2F)c(Cl)c1 , please?
f

====

- System: COLO 205 colon
- assay-summary: NCI-60 one-dose screen, 48 h (100 = growth as untreated, 0 = no growth, -100 = all killed)
- recorded-conditions: 10 µM unless noted
This is part of a sample that, as a whole, favours compounds with a hit. Of some 83,000 tested, about 20% had one in any assay.
parameter: growth (%)
Respond with the bare value in %.

Observe how each entry below is paired with its result.
| molecule | target-or-test-system | growth, % |
| --- | --- | --- |
| NCCOc1ncccc1/C=C1\c2ccccc2-c2ccc(C(F)F)cc21 | COLO 205 colon | 48.9 |
| Cc1ccc(C(=O)N/N=C/c2cccc([N+](=O)[O-])c2)cn1 | COLO 205 colon | 112 |
| CCCCn1c(=O)c(-c2cc(-c3ccc(Cl)cc3)nc(-c3ccc(Cl)cc3)c2)cc2cc(Cl)ccc21 | COLO 205 colon | 109 |
| NCCCNc1nc2ccccc2c2c(=O)c3cc(F)cc(Cl)c3sc12 | COLO 205 colon | 106 |
| COC(=O)Nc1ccc(-c2nc(-c3cccc(OC)c3)c(-c3ccnc(Br)c3)[nH]2)cc1 | COLO 205 colon | 79.7 |
| C=C1C(=O)O[C@H]2[C@H]1CC/C(COC(=O)CCC(=O)NCCOCCOCC(=O)Nc1ccc(OC)c(C(N)=O)c1O)=C\CC[C@@]1(C)O[C@@H]21 | COLO 205 colon | 63.7 |

Bench note: what growth did NC1CCN(c2nc(Nc3cccc(C(F)(F)F)c3)c3c(=O)[nH]ccc3n2)CC1 show?
-61.1

Could you do the same for COc1ccc(C(=S)N2CCN(c3cccc(C)c3)CC2)cc1OC , please?
80.2

Could you do the same for NC(=O)C1(Nc2ccc(Br)cc2)CCCC1 , please?
104

Could you do the same for COc1ccccc1/C=C1\Oc2cc(OCCN3CCC(Cc4ccccc4)CC3)ccc2C1=O , please?
38.4

Could you do the same for Cc1cc(N2CCCC2)nc(N(CCCNc2ccnc3cc(Cl)ccc23)Cc2ccccn2)n1 , please?
39.1

Could you do the same for Cn1cc(-c2ccc3cc(-c4ccc(CC(=O)Nc5cc(C(C)(C)C)nn5C)cc4)cnc3c2)cn1 , please?
16.2

Could you do the same for C=CCNc1ccc2c3c(cccc13)C(=O)N(N1C(=O)c3cccc4cccc(c34)C1=O)C2=O , please?
117

Could you do the same for CCCCCCn1c(-c2ccc(C(=O)O/N=C(\N)c3ccc4ccccc4c3)cc2)nc(-c2ccccc2)c1-c1ccccc1 , please?
77.2

Could you do the same for CCCCCCNC(=O)Oc1ccc(/C(=C(\C)c2ccc(Cl)cc2)c2ccc(OCCN(CC)CC)cc2)cc1 , please?
4.94

Could you do the same for COc1ccc(C2C(N)=NNC2c2cccc(O)c2)cc1 (centres undefined) , please?
125

Could you do the same for CCOC(=O)c1c(C)nc2c(c1N)CC(=O)N2Cc1ccc(F)cc1 , please?
103

Could you do the same for CCCCCCN(CCCCCC)c1ccc(/C=C2/SC(=O)NC2=O)c(C)c1 , please?
109

Could you do the same for COc1ccc(OC)c(/C=C/C(=O)N/N=C/c2ccc(Cl)cc2)c1 , please?
-48.9
